PROTOCOL: yeast display, Sf9 membrane polyspecificity reagent, FACS + sequencing; frameworks hold sequencing errors
METRIC_NAME: polyreactivity (PSR sort gate)

Recorded results for 8 sequences are shown here.
The sequence listed as "QVQLVESGGGLVQAGGSLRLSCAASGSTYYRYTMGSYRQAPGKERELLAAITSGGGTDYADSVKGRFTISRDNAKNTVYLQMNSLKPEDTAVYYCAAEGSWYSYPDYDYWGQGTQVTVSS" shows polyreactivity (PSR sort gate) equal to low polyreactivity

For record "QVQLVESGGGLVQAGGSLRLSCAASGRIFRGYAMGWSRQAPGKERELVAAITSRGGSTYADSVKGRFTISRDNAKNTVYLQMNSLKPEDTAVYYCNAKEGSRYRKYDYWGQGTQVTVSS" the listed polyreactivity (PSR sort gate) is low polyreactivity

Lab note: measured polyreactivity (PSR sort gate) of "QVQLVESGGGLVQAGGSLRLSCAASGRIFYYNGMGWSRQAPGKERELVAAITANGGSTYYADSVKGRFTISRDNAKNTVYLQMNSLKPDDTAVYYCAARYRFGGIRRYNYWGQGTQVTVSS" was high polyreactivity

According to the records, this sequence "QVQLVESGGGLVQAGGSLRLSCAASGRIFDVYAMGWYRQAPGKERELVAAITWSGGRTYYADSVKGRFTISRDNAKNTVYLQLNSLKPEDTAVYYCAAEKPYVRGYLWTYDYWGQGTQVTVSS" displays polyreactivity (PSR sort gate) of low polyreactivity

Reported polyreactivity (PSR sort gate) for "QVQLVESGGGLVQAGGSLRLSCAASGRTFSRYVMGWYRQAPGKERELVATISDVGNTYYADSVKGRFTISRDNAKNTVYLQMNSLKPEDTAVYYCNRVYFTSRQGQMYYWGQGTQVTVSS" was high polyreactivity

The recorded polyreactivity (PSR sort gate) for "QVQLVESGGGLVQAGGSLRLSCAASGIIIDYYTMGWYRQAPGQERELVAAINKSGGSTYADSVKGRFTISRDNAKNTVYLQMNSLKPEDTAVYYCAAEVDYSYWPEYARKYYYWGQGTQVTVSS" is low polyreactivity

Input "QVQLVESGGGLVQAGGSLRLSCAASGIIFGYYAMGWYRQAPGKERELVASIIWSGGSTYYADSVKGRFTISRDNAKNTVYLQMNSLKPEDTAVYYCAAYRYQEYDYWGQGTQVTVSS" . Output polyreactivity (PSR sort gate): high polyreactivity

Measured polyreactivity (PSR sort gate), "QVQLVESGGGLVQAGGSLRLICAASGRIFRANAMGWYRQAPGQERELVATITISGGSTYYADSVKGRFTISRDNAKNTVYLQMNCLKPEDTAVYYCNAGHTLTFVPRPAYYSMYYWGQGTQVTVSS" : low polyreactivity

Further cases:
Lab book: polyreactivity (PSR sort gate) of "QVQLVESGGGLVQAGGSLRLSCAASGNTFSQYAMGWYRQAPGKERELLAAISGSGGDTYYADSVKGRFTISRDNAKNTVYLQMNIMKPEDTAVYYCNADQESVFYEDYDYWGQGTQVTVSS" noted as low polyreactivity

The measured polyreactivity (PSR sort gate) associated with "QVQLVESGGGLVQAGGSLRLSCAASGFTFNYYAMGWYRQATGKERELVAAIDSGGNTYYADSVKGRFTISRDNAKNNVYLLLNSLKPEDTAVYYCDAYSDYQYDYWGQGTQVTVSS" reads low polyreactivity

Input "QVQLVESGGGLVQAGGSLRLSCAASGRTFGYNAMGWYRQAPGKERELVAAITRGGSTYYADSVKGRFTISRDNAKNTVYLQMNSLKPEDTAVYYCAAKSYWSGYFVGYEYWGQGTQVTVSS" . Output polyreactivity (PSR sort gate): high polyreactivity

Sure, the documented polyreactivity (PSR sort gate) for "QVQLVESGGGLVQAGGSLRLSCAASGLTFGLNAMGWYSQAPGKERELVAAITWSGGSTYYADSVKGRFTISRDNAKNTVYLQMNSLKPEDTAVYYCATDNLSVNGGYNYWGQGTQVTVSS" is low polyreactivity

Documented polyreactivity (PSR sort gate) of "QVQLVESGGGLVQAGGSLRLSCAASGRIFGYYAMGWYRQAPGKERELVAAITSGGRTNYADSVKGRFTISRDNAKNTVYLQMNSLKPEDTAVYYCAKEYPRYSSPYDYWGQGTQVTVSS" : low polyreactivity

The reported polyreactivity (PSR sort gate) of the sequence "QVQLVESGGVLVQAGGSLRLSCAAYGSNFVRNGMGWYRQAPGKEREFVASITSGTITYYADSVKGRFTISRDNAKNTVYLQMNSLKPEDTAVYYCNAGCRSSRFKRPYFRERNYWGQGTQLTVSS" was high polyreactivity

So for "QDQLVESGGGLVQAGGSLRLSCAASASTFPYNPMGRYRQAPRKERELVAAITATDDSTYYADSVKGRFTISRDNAKNTVYLQMNSLKPEDTAVYYCAADFGGYVFYFGYDYWGQGTQVTVSS" , the logged polyreactivity (PSR sort gate) turned out to be low polyreactivity

Lab note: measured polyreactivity (PSR sort gate) of "QVQLVESGGCLVQAGGSLRLSCAASGSTFLGNAMGWYRQAPGKERELVAGITSGGTTNYADSVKGRFTISRDNAKNTVYLQMNSLKPEDTAVYYCNADVWIGQLFDPGYDFDYWGQGTQVTVSS" was low polyreactivity

Reported polyreactivity (PSR sort gate) ( "QVQLVESGGGVVQAGGSLRLSCAGSGRTFGPYAMGWYRQAPGKERELVAAIRYIDDSTFYADSVKGRFTISRDKAKNTVYLQMNSLKPEDTAVYYCAAQRRVVGRHGLSLIRYDYWGQGTQVTVTS" ) = low polyreactivity

Please fill in: polyreactivity (PSR sort gate) reported for "QVQLVESGAGLVQAGGSLRLSCAASGITFRGYAMGWYRQAPGKERELVAAISSRGGSTYYADSVMGRFTISRDNAKNTVYLQMNSLKPEDTAVYYCNAVSGLYFTYTYDYWGQGTQVTVSS" = high polyreactivity

Measured polyreactivity (PSR sort gate) of "QVQLVESGGGLVQAGGSLRLSCAASGITFAEYAMGWYRPAPGKERELVAAINGGGGSTYYADSVKGRFTISRDYAKNTVYFQMNSLKPEDTAVYYCAADGYPGDYDYWGQGTQVTVSS" : high polyreactivity

According to the records, this sequence "QVQLVESGGGLVQAGGSLRLSCAASGRIFHFNAMGWYRQAPGTEKELVATITKRGGRTYYADSVKGRFTISRDNAKNTVYLQMNSLKPDDTAVYYCNADQTRYSAVSGYDYWGQGTQVTVSS" displays polyreactivity (PSR sort gate) of high polyreactivity

Sample "QVQHVESGGGLVQAGGSLRLSCAASGRTFALNAMGWYRQAPGKERELVAAISWSSGRTYYADSVKGRFTISRDNAKNTVYLQMNSLKPEDTAVYYCAALVAHKGDYWGQGTQVTVSS" ; polyreactivity (PSR sort gate) observed: high polyreactivity
